target: T1, human Y4 receptor (human, UniProt P0DQD5 1-375); assay: 125I-PYY displacement, COS-7 membranes (as in Table 3)
T1 construct: also called hp25a; hp25a receptor
T1 sequence (P0DQD5 whole entry): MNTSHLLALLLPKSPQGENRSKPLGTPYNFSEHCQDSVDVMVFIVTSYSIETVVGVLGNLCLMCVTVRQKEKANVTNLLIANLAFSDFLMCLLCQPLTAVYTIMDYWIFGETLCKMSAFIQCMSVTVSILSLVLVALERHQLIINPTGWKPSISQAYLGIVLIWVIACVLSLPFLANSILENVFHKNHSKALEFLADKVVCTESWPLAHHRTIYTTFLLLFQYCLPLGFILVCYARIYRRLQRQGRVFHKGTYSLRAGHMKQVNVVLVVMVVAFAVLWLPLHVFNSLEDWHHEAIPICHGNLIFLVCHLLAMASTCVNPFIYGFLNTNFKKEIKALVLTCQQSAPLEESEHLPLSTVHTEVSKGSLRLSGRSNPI
Where no end group is shown, it is not given here.
Measured Attribute: Ki

Find the measured Ki of YINMLTRPRY-NH2 (peptide, UniProt P01298 56-65, looked up, range 27-36) [PP27-36, human] and report it.
> 88 nM

Find the measured Ki of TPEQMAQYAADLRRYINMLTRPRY-NH2 (peptide, UniProt P01298 42-65, looked up, range 13-36) [PP13-36, human] and report it.
39 nM

Find the measured Ki of LTRPRY-NH2 (peptide, UniProt P01298 60-65, looked up, range 60-65; also called human PP31-36) [PP31-36, human] and report it.
> 10000 nM

Find the measured Ki of APLEPVYPGDNATPEQMAQYAADLRRYINMITRQRY-NH2 (peptide, UniProt P01298 30-65, looked up, mature) [[Ile^31, Gln^34]PP, human] and report it.
0.09 nM
